Assay details: physchem
Assay type: physicochemical
Conditions used: water, 20°C (Table II); read-out: SOLUBILITY IN WATER at 20°
Property: solubility

INSERT INTO measurements (compound, data_value) VALUES
  ('CN(C(=O)CN(CCO)CC(=O)Nc1c(I)c(C(=O)NC(CO)C(O)CO)c(I)c(C(=O)NC(CO)C(O)CO)c1I)c1c(I)c(C(=O)NCCO)c(I)c(C(=O)NCCO)c1I (stereo not drawn) [ICJ-1992]', '> 600 mg/mL'),
  ('CN(C(=O)CN(CCO)CC(=O)Nc1c(I)c(C(=O)NCC(O)CO)c(I)c(C(=O)NCC(O)CO)c1I)c1c(I)c(C(=O)NCC(O)CO)c(I)c(C(=O)NCC(O)CO)c1I (stereo not drawn) [ICJ-1792]', '> 600 mg/mL'),
  ('O=C(CN(CC(=O)Nc1c(I)c(C(=O)NCCO)c(I)c(C(=O)NCCO)c1I)C(CO)C(O)CO)Nc1c(I)c(C(=O)NCCO)c(I)c(C(=O)NCCO)c1I (stereo not drawn) [ICJ-2592]', '> 600 mg/mL');

**Query** Look at this compound and give its reported solubility. O=C(CN(CCO)CC(=O)Nc1c(I)c(C(=O)NCCO)c(I)c(C(=O)NCCO)c1I)Nc1c(I)c(C(=O)NCCO)c(I)c(C(=O)NCCO)c1I [ICJ-1392]
**Result** < 600 mg/mL
